Provide the recorded selectivity ratio for the entries that follow.
# procedureText: Selectivity index, ratio of ED50 for human HaCaT cells to MIC for Staphylococcus epidermidis clinical isolate
# Format: toxicity
# experimentalContext: read-out: Selectivity Index
Square brackets hold non-standard residues; d marks the D form. Peptide text beside a SMILES is read from it. N(4-F-Bzl)Gly = O=C(O)CNCc1ccc(F)cc1; Gly(N-(CH2)6NH2) = NCCCCCCNCC(=O)O; Gly(N-2-aminoethyl) = NCCNCC(=O)O; Nspe = C[C@H](NCC(=O)O)c1ccccc1; Nphe = O=C(O)CNCc1ccccc1; Nlys = NCCCCNCC(=O)O
Number only, please.

Please report the recorded selectivity ratio for NCCCCNCC(=O)N(CC(=O)N(CC(=O)N(CCCCN)CC(=O)N(CC(=O)N(CC(=O)N(CCCCN)CC(=O)N(CC(=O)N(CC(=O)N(CCCCN)CC(=O)N(CC(=O)N(CC(N)=O)Cc1ccccc1)Cc1ccccc1)Cc1ccccc1)Cc1ccccc1)Cc1ccccc1)Cc1ccccc1)Cc1ccccc1)Cc1ccccc1 (H-[Nlys][Nphe][Nphe][Nlys][Nphe][Nphe][Nlys][Nphe][Nphe][Nlys][Nphe][Nphe]-NH2) .
18

Item: NCCCCCCNCC(=O)N(CC(=O)N(CC(=O)N(CCCCCCN)CC(=O)N(CC(=O)N(CC(=O)N(CCCCCCN)CC(=O)N(CC(=O)N(CC(=O)N(CCCCCCN)CC(=O)N(CC(=O)N(CC(N)=O)Cc1ccccc1)Cc1ccccc1)Cc1ccccc1)Cc1ccccc1)Cc1ccccc1)Cc1ccccc1)Cc1ccccc1)Cc1ccccc1 (H-[Gly(N-(CH2)6NH2)][Nphe][Nphe][Gly(N-(CH2)6NH2)][Nphe][Nphe][Gly(N-(CH2)6NH2)][Nphe][Nphe][Gly(N-(CH2)6NH2)][Nphe][Nphe]-NH2)
17

Can you handle `C[C@@H](c1ccccc1)N(CC(N)=O)C(=O)CN(C(=O)CN(CCN)C(=O)CN(C(=O)CN(C(=O)CNCCN)[C@@H](C)c1ccccc1)[C@@H](C)c1ccccc1)[C@@H](C)c1ccccc1` next?
1

Also, `N=C(N)NCCCCNCC(=O)N(CC(=O)N(CC(=O)N(CCCCNC(=N)N)CC(=O)N(CC(=O)N(CC(=O)N(CCCCNC(=N)N)CC(=O)N(CC(=O)N(CC(=O)N(CCCCNC(=N)N)CC(=O)N(CC(=O)N(CC(N)=O)Cc1cccc(F)c1)Cc1cccc(F)c1)Cc1cccc(F)c1)Cc1cccc(F)c1)Cc1cccc(F)c1)Cc1cccc(F)c1)Cc1cccc(F)c1)Cc1cccc(F)c1` please.
14

Please give the result for `NCCCCNCC(=O)N(CC(=O)N(CC(=O)N(CCCCN)CC(=O)N(CC(=O)N(CC(=O)N(CCCCN)CC(=O)N(CC(=O)N(CC(=O)N(CCCCN)CC(=O)N(CC(=O)N(CC(N)=O)Cc1cccc(F)c1)Cc1cccc(F)c1)Cc1cccc(F)c1)Cc1cccc(F)c1)Cc1cccc(F)c1)Cc1cccc(F)c1)Cc1cccc(F)c1)Cc1cccc(F)c1` too.
8

Could you do the same for NCCNCC(=O)N(CC(=O)N(CC(=O)N(CCN)CC(=O)N(CC(=O)N(CC(=O)N(CCN)CC(=O)N(CC(=O)N(CC(N)=O)Cc1ccccc1)Cc1ccccc1)Cc1ccccc1)Cc1ccccc1)Cc1ccccc1)Cc1ccccc1 (H-[Gly(N-2-aminoethyl)][Nphe][Nphe][Gly(N-2-aminoethyl)][Nphe][Nphe][Gly(N-2-aminoethyl)][Nphe][Nphe]-NH2) , please?
1

What about NCCCCNCC(=O)N(CC(=O)N(CC(=O)N(CCCCN)CC(=O)N(CC(=O)N(CC(=O)N(CCCCN)CC(=O)N(CC(=O)N(CC(=O)N(CCCCN)CC(=O)N(CC(=O)N(CC(N)=O)Cc1ccc(F)cc1)Cc1ccc(F)cc1)Cc1ccc(F)cc1)Cc1ccc(F)cc1)Cc1ccc(F)cc1)Cc1ccc(F)cc1)Cc1ccc(F)cc1)Cc1ccc(F)cc1 (H-[Nlys][N(4-F-Bzl)Gly][N(4-F-Bzl)Gly][Nlys][N(4-F-Bzl)Gly][N(4-F-Bzl)Gly][Nlys][N(4-F-Bzl)Gly][N(4-F-Bzl)Gly][Nlys][N(4-F-Bzl)Gly][N(4-F-Bzl)Gly]-NH2) ?
46

Further, for CCCCCNCC(=O)N(CC(=O)N(CC(=O)N(CCCCC)CC(=O)N(CC(=O)N(CC(=O)N(CCCCN)CC(=O)N(CC(=O)N(CC(=O)N(CCCCN)CC(=O)N(CC(=O)N(CC(N)=O)[C@@H](C)c1ccccc1)[C@@H](C)c1ccccc1)C(C)c1ccccc1)[C@@H](C)c1ccccc1)C(C)c1ccccc1)[C@@H](C)c1ccccc1)C(C)c1ccccc1)[C@@H](C)c1ccccc1 (single isomer, unassigned) ?
20

Would you kindly repeat that for CC(c1ccccc1)N(CC(=O)N(CCN)CC(=O)N(CC(=O)N(CC(=O)N(CCN)CC(=O)N(CC(=O)N(CC(N)=O)[C@@H](C)c1ccccc1)[C@@H](C)c1ccccc1)C(C)c1ccccc1)[C@@H](C)c1ccccc1)C(=O)CN(C(=O)CNCCN)C(C)c1ccccc1 (single isomer, unassigned) ?
8

Another: C[C@H](c1ccccc1)N(CC(N)=O)C(=O)CN(C(=O)CN(CCCCN)C(=O)CN(C(=O)CN(C(=O)CN(CCCCN)C(=O)CN(C(=O)CN(C(=O)CNCCCCN)[C@H](C)c1ccccc1)[C@@H](C)c1ccccc1)[C@H](C)c1ccccc1)[C@@H](C)c1ccccc1)[C@H](C)c1ccccc1 (stereo in doubt)
50

Also, C[C@@H](c1ccccc1)N(CC(N)=O)C(=O)CN(C(=O)CN(CCCCCCN)C(=O)CN(C(=O)CN(C(=O)CN(CCCCCCN)C(=O)CN(C(=O)CN(C(=O)CNCCCCCCN)[C@@H](C)c1ccccc1)[C@@H](C)c1ccccc1)[C@@H](C)c1ccccc1)[C@@H](C)c1ccccc1)[C@@H](C)c1ccccc1 (H-[Gly(N-(CH2)6NH2)][Nspe][Nspe][Gly(N-(CH2)6NH2)][Nspe][Nspe][Gly(N-(CH2)6NH2)][Nspe][Nspe]-NH2) please.
50

Attribution: ChEMBL document CHEMBL4261490
